Biological target: Sphingosine kinase 2 (Mus musculus) (UniProt Q9JIA7)
Sequence (Q9JIA7 whole entry): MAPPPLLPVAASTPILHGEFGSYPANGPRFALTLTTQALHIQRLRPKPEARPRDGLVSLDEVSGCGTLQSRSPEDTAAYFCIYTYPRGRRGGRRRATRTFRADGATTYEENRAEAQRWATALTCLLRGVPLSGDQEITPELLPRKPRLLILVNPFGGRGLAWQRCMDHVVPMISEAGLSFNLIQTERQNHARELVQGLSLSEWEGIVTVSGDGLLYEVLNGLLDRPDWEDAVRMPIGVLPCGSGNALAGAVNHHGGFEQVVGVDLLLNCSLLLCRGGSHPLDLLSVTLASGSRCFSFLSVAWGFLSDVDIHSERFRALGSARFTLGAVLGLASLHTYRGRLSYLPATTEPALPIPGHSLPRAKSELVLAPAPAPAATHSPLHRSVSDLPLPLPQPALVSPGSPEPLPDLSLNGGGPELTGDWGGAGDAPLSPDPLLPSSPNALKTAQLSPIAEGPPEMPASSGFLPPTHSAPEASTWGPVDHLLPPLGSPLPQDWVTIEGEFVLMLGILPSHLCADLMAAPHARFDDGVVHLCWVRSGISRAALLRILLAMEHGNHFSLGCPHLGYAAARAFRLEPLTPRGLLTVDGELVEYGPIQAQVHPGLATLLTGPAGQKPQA
Test: Inhibition of mouse recombinant SphK2 assessed as remaining enzyme activity at 1 uM using gamma[32P]ATP incubated for 20 mins by liquid scintillation counting method
experimental readout: Activity (%)

smiles string	u	Activity
CCCCCCc1ccc(-c2noc([C@@H]3CCN3C(=N)N)n2)cc1	%	86
CCCCCCCCCCCCCCc1ccc(-c2noc([C@@H]3CCCN3C(=N)N)n2)cc1	%	52
CCCCCCCCc1ccc(-c2noc([C@@H]3CCCN3C(=N)N)n2)cc1	%	44
CCCCCCc1ccc(-c2noc([C@@H]3CCCN3C(=N)N)n2)cc1	%	76
CCCCCCCCCCc1ccc(-c2noc([C@@H]3CCCN3C(=N)N)n2)cc1	%	46

A = CCCCCCCCCCCCc1ccc(-c2noc([C@@H]3CCCN3C(=N)N)n2)cc1
B = CCOCc1cc(C)cc(Cc2ccc(-c3noc([C@@H]4CCCN4C(=N)N)n3)cc2)c1
Request: Lower Activity: A or B ? Field: selected label. Fill in the label of the entry you choose.
Response: A
(A: 56%, B: 99%)
